meta.source: patent US11352356B2

Biological target: human activated kallikrein enzyme (Homo sapiens (Human))
Sequence (P03952 391-638): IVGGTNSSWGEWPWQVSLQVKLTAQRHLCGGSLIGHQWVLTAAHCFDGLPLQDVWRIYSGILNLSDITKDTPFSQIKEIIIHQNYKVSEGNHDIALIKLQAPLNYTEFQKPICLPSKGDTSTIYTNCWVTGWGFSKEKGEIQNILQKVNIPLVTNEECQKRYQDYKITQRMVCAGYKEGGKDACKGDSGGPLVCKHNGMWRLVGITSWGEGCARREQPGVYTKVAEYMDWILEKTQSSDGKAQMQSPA
Sequence (P03952 20-390 partner): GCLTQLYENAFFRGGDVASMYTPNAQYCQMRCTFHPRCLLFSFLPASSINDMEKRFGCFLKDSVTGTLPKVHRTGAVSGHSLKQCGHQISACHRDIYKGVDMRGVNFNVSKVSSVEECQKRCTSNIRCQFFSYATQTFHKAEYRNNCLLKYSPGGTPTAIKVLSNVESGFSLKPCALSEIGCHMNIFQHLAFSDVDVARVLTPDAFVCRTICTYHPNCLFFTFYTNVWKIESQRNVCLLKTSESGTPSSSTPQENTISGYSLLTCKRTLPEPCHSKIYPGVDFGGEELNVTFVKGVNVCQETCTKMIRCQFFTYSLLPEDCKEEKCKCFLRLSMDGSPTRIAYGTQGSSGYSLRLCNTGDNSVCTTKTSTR
Test: Inhibition of human activated plasma kallikrein, fluorogenic peptide substrate assay, 500 pM enzyme format
Format: biochemical
Settings: 500 pM activated kallikrein, 300 uM Pro-Phe-Arg-7-amido-4-methylcoumarin substrate, 30 min preincubation, 10 min reaction at RT; read-out: Primary Dose Response Assay: Average EC50
Method: Example compounds were evaluated for inhibition of the human activated kallikrein enzyme in two formats of an assay employing a fluorogenic peptide substrate. […] After initiation with substrate, reactions were incubated for 10 min at RT and fluorescence emission at 460 nm from 380 nm excitation measured with a microplate reader. […] After initiation with substrate, reactions were incubated for 18 h at RT and fluorescence emission at 460 nm from 380 nm excitation measured with a microplate reader.
Quick list: EC50 per entry.

Guide cases for EC50, answers given:
O=C(NCc1ncn2ccc(Cl)cc12)c1cnn(Cc2cn3nc(C4CC4)ccc3n2)c1 | 1 to 10 nM
O=C(NCc1ncn2ccc(Cl)c(F)c12)c1cn(Cc2ccc3nccnc3c2)nn1 | 10 to 100 nM
O=C(NCc1ncn2ccc(Cl)c(F)c12)c1cn(Cc2cn3cc(C4CC4)cc(CC(F)C(=O)O)c3n2)nn1 (centres unmarked) [I-224b] | < 1 nM
CC(C)(C(=O)O)C(O)c1cc(C2CC2)cn2cc(Cn3cc(C(=O)NCc4ncn5ccc(Cl)c(F)c45)nn3)nc12 (centres unmarked) [I-241b] | < 1 nM
CCOC(=O)CCn1c(Cn2cc(C(=O)NCc3ncn4ccc(Cl)c(F)c34)nn2)cc2cc(C3CC3)ccc21 [I-251a] | 1 to 10 nM
COc1ccc2nc(CNC(=O)c3cnn(Cc4cn5ccc(C6CC6)cc5n4)c3)cn2c1 | 10 to 100 nM

-- ask // returns reported EC50 for input `O=C(NCc1ncn2ccc(Cl)c(F)c12)c1cn(Cc2cn3ccccc3n2)nn1`
-- reply 10 to 100 nM

-- ask // returns reported EC50 for input `O=C(NCc1ncn2ccc(Cl)c(F)c12)c1cn(Cc2cc3ccc(C4CC4)cc3o2)nn1`
-- reply 10 to 100 nM
